# experiment-notes: In vitro liver microsomal stability assay
# run-conditions: human liver microsomes 0.5 mg per mL, NADPH 2 mM, pH 7.4, 1 uM compound, 37° C.; relative to d0 (Example 1)
observation-type: Clearance % change over d0 (%)

(1) COc1ccc(CCNCC(O)COc2cccc(C)c2)cc1OC (centres unmarked) [Example 1, reference compound]
(2) [2H]C([2H])([2H])c1cccc(OCC(O)CNCCc2ccc(OC)c(OC)c2)c1 (centres unmarked)
Query string: Parameter check: reported Clearance % change over d0 is higher for which label, 1 or 2 ? Give the chosen item's label as your response.
Result string: 1
(1: 0.00%, 2: −4.71%)

(I) [2H]C([2H])([2H])Oc1ccc(CCNCC(O)COc2cccc(C)c2)cc1OC([2H])([2H])[2H] (centres unmarked)
(II) [2H]C([2H])([2H])Oc1ccc(CCNC([2H])([2H])C([2H])(O)C([2H])([2H])Oc2cccc(C)c2)cc1OC([2H])([2H])[2H] (centres unmarked)
Query string: Parameter check: reported Clearance % change over d0 is higher for which label, I or II ? Give the chosen item's label as your response.
Result string: I
(I: 1.68%, II: 0.85%)
